- system: Glucocorticoid receptor (Homo sapiens) (UniProt P04150)
- Sequence (P04150 whole entry, looked up): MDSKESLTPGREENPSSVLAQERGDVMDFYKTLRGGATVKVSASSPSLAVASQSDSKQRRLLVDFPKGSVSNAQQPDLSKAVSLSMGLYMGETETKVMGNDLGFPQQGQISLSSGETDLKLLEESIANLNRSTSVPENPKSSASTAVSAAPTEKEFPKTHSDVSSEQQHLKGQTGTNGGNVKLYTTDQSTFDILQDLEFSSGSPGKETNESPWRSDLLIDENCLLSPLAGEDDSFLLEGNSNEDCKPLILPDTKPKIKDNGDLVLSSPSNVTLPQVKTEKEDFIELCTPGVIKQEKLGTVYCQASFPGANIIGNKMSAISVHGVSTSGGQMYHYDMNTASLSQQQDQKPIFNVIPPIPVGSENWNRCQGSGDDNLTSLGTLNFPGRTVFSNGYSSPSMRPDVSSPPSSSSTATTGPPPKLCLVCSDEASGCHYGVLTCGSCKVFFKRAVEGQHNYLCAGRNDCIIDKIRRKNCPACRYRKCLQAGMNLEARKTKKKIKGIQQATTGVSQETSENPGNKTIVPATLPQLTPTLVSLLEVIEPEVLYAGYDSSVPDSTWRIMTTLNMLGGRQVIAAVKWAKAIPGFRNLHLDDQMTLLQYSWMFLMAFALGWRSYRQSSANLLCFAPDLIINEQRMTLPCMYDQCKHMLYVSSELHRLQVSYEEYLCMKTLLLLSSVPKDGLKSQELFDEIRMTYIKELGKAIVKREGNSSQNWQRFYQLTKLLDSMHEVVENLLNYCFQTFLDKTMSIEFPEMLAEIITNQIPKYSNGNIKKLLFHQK
- protocol details: qHTS assay to identify small molecule antagonists of the glucocorticoid receptor (GR) signaling pathway (AID 720692)
- test conditions: GR-bla HeLa, beta-lactamase FRET ratio, dexamethasone-stimulated, 18 h; series mostly up to 58.5 µM
Results filed as inconclusive are left out. Activity calls are given as the source filed them. Calls come from the whole dose curve; as a rule, active = well fitted inhibition curve with a large enough effect in the signal ratio in the repeat runs (not every such curve was filed as active); inconclusive = weak or mixed curves, or effect the other way; inactive = no such curve, though single readings can be large or run the other way; the % refers to the signal ratio.
Respond using exactly one of the listed classes: active, inactive

// known answers, use as guide
[[record]]
compound = "ClC1=C(Cl)[C@]2(Cl)[C@@H]3[C@@H]4C[C@@H]([C@H]5O[C@@H]45)[C@@H]3[C@@]1(Cl)C2(Cl)Cl"
system = "Glucocorticoid receptor (Homo sapiens) (UniProt P04150)"
class_label = "active"

[[record]]
compound = "c1ccc(Nc2ccc3ccccc3c2)cc1"
system = "Glucocorticoid receptor (Homo sapiens) (UniProt P04150)"
class_label = "inactive"

[[record]]
compound = "Clc1ccc(C(c2ccc(Cl)cc2)C(Cl)(Cl)Cl)cc1"
system = "Glucocorticoid receptor (Homo sapiens) (UniProt P04150)"
class_label = "active"

[[record]]
compound = "C[C@@H]1O[C@@H](O[C@H]2C[C@@H](O)[C@]3(CO)[C@H]4[C@H](O)C[C@]5(C)[C@@H](C6=CC(=O)OC6)CC[C@]5(O)[C@@H]4CC[C@]3(O)C2)[C@H](O)[C@H](O)[C@H]1O"
system = "Glucocorticoid receptor (Homo sapiens) (UniProt P04150)"
class_label = "active"

[[record]]
compound = "COc1ccc(/C(=C/C(=O)N2CCOCC2)c2ccc(Cl)cc2)cc1OC"
system = "Glucocorticoid receptor (Homo sapiens) (UniProt P04150)"
class_label = "inactive"

[[record]]
compound = "CCC(C)c1cc([N+](=O)[O-])cc([N+](=O)[O-])c1OC(=O)C=C(C)C (centres undefined)"
system = "Glucocorticoid receptor (Homo sapiens) (UniProt P04150)"
class_label = "active"

[[record]]
compound = "O=C(CCCN1CCC2(CC1)C(=O)NCN2c1ccccc1)c1ccc(F)cc1"
system = "Glucocorticoid receptor (Homo sapiens) (UniProt P04150)"
class_label = "inactive"

[[record]]
compound = "ClC1=C(Cl)[C@]2(Cl)[C@H]3[C@H]([C@H]4C=C[C@H]3C4)[C@@]1(Cl)C2(Cl)Cl"
system = "Glucocorticoid receptor (Homo sapiens) (UniProt P04150)"
class_label = "active"


Now look at this one.
Call for entry O=C1c2ccccc2C(=O)C1C(=O)C(c1ccccc1)c1ccc(Cl)cc1 (centres undefined) :
active

* * *

- system: Cytochrome P450 3A4 (Homo sapiens)
- protocol details: Cytochrome P450 Family 3 Subfamily A Member 4 (CYP3A4) small molecule antagonists: luciferase reporter qHTS assay (AID 1671201); note: nearly all actives have a fitted effect of over 50% in size; note: potency is the fitted concentration of half-maximal effect
- test conditions: P450-Glo CYP3A4 enzyme, luciferin luminescence, 1 h; series mostly up to 115 µM
- Text: National Center for Advancing Translational Sciences [NCATS] U.S. Environmental Protection Agency [EPA] National Institutes of Environmental Health Sciences [NIEHS] National Toxicology Program [NTP] U.S. Food and Drug Administration [FDA] Cytochrome P450 (CYP) enzymes are membrane-bound hemeproteins that play a key role in metabolism of drugs and xenobiotics. […] The luciferin products formed are detected with a luciferin detection reagent, and the amount of light produced is proportional to CYP activity. […]
Results filed as inconclusive are left out. Active and inactive are the calls of the source. Calls come from the whole dose curve; as a rule, active = well fitted inhibition curve with a large enough effect in the repeat runs; inconclusive = weak or mixed curves; inactive = no such curve, though single readings can be large or run the other way.
measure: Potency

The following compounds have reported results that may help.
[[record]]
cpd_smiles = "N#CCc1ccc(Cl)cc1"
measure = "Potency"
result = "inactive"

[[record]]
cpd_smiles = "Oc1ccc(C2(c3ccc(O)cc3)c3ccccc3-c3ccccc32)cc1"
measure = "Potency"
result = "17.8 µM (active)"

[[record]]
cpd_smiles = "C[C@H]1O[C@@H](O[C@H]2[C@@H](O)C[C@H](O[C@H]3[C@@H](O)C[C@H](O[C@H]4CC[C@@]5(C)[C@H](CC[C@@H]6[C@@H]5CC[C@]5(C)[C@@H](C7=CC(=O)OC7)CC[C@]65O)C4)O[C@@H]3C)O[C@@H]2C)C[C@H](O)[C@@H]1O"
measure = "Potency"
result = "inactive"

[[record]]
cpd_smiles = "C[C@@H](Oc1ccc(Cl)cc1Cl)C(=O)O"
measure = "Potency"
result = "inactive"

[[record]]
cpd_smiles = "CC[C@H](C)[C@H]1O[C@]2(C=C[C@@H]1C)C[C@@H]1C[C@@H](C/C=C(\\C)[C@@H](O[C@H]3C[C@H](OC)[C@@H](O[C@H]4C[C@H](OC)[C@@H](O)[C@H](C)O4)[C@H](C)O3)[C@@H](C)/C=C/C=C3\\CO[C@@H]4[C@H](O)C(C)=C[C@@H](C(=O)O1)[C@]34O)O2"
measure = "Potency"
result = "9.39 µM (active)"

[[record]]
cpd_smiles = "COc1ccc(/C(=C/C(=O)N2CCOCC2)c2ccc(Cl)cc2)cc1OC"
measure = "Potency"
result = "3.17 µM (active)"


Please report the recorded Potency for `CCCCCCCCCCCCCCCCCCn1cc[n+](C)c1` .
31.5 µM (active)

* * *

- protocol details: qHTS assay to identify small molecule HDAC inhibitors - cell viability counter screen (AID 1259365); note: nearly all actives have a fitted effect of over 50% in size
- test conditions: HCT-116 viability, CellTiter-Glo ATP luminescence, 2 h; series mostly up to 92.4 µM
Calls of active or inactive are those of the source. The call rests on the fitted dose curve; in most records, active means well fitted cell-killing curve with a large enough effect in the repeat runs; inconclusive means weak or mixed curves, or effect the other way; inactive means flat fitted curve, though single readings scatter.
Respond using exactly one of the listed classes: label 1 = active, label 0 = inactive

// known answers, use as guide
[[record]]
cpd_smiles = "FC(F)(F)c1cccc(C2=CCN(CCc3ccc4ccccc4c3)CC2)c1"
class_label = "label 0"

[[record]]
cpd_smiles = "CC(C)(C)OO"
class_label = "label 0"

[[record]]
cpd_smiles = "CCCCCCCCCCCCCCCC[n+]1ccccc1"
class_label = "label 0"

[[record]]
cpd_smiles = "ClC(Cl)=C(c1ccc(Cl)cc1)c1ccc(Cl)cc1"
class_label = "label 0"

[[record]]
cpd_smiles = "CCc1ccccc1C"
class_label = "label 0"


Call for entry `C[C@@H]1CC[C@@]2(OC1)O[C@H]1[C@@H](O)[C@H]3[C@@H]4CC[C@H]5C[C@@H](O[C@@H]6O[C@H](CO)[C@H](O[C@@H]7O[C@H](CO)[C@@H](O)[C@H](O[C@@H]8OC[C@@H](O)[C@H](O)[C@H]8O)[C@H]7O[C@@H]7O[C@H](CO)[C@@H](O)[C@H](O[C@@H]8O[C@H](CO)[C@@H](O)[C@H](O)[C@H]8O)[C@H]7O)[C@H](O)[C@H]6O)[C@H](O)C[C@]5(C)[C@H]4CC[C@]3(C)[C@H]1[C@@H]2C` :
label 1

Likewise for `Oc1c(Cl)c(Cl)cc(Cl)c1Cl` ?
label 0

Likewise for `Cn1cc(C2=C(c3cn(C4CCN(Cc5ccccn5)CC4)c4ccccc34)C(=O)NC2=O)c2ccccc21` ?
label 0

* * *

Each record here notes measured Potency.
- protocol details: qHTS assay to identify small molecule antagonists of the thyroid receptor (TR) signaling pathway (AID 743065); note: potency is the fitted concentration of half-maximal effect; nearly all actives have a fitted effect of over 55% in size
- test conditions: GH3.TRE-Luc, T3-stimulated luciferase inhibition, 23.5 h; series mostly up to 70.3 µM
Results filed as inconclusive are left out. The source made the active and inactive calls. Calls come from the whole dose curve; as a rule, active = well fitted inhibition curve with a large enough effect in the repeat runs; inconclusive = weak or mixed curves; inactive = no such curve, though single readings can be large or run the other way.

[[record]]
compound = "CC1(C)CN=C(NN=C(/C=C/c2ccc(C(F)(F)F)cc2)/C=C/c2ccc(C(F)(F)F)cc2)NC1"
measure = "Potency"
result = "12.2 µM (active)"

[[record]]
compound = "CCOC(=O)CC(=O)CCl"
measure = "Potency"
result = "61.1 µM (active)"

[[record]]
compound = "CCOC(=O)OC1=C(c2cc(C)ccc2C)C(=O)NC12CCC(OC)CC2 (stereo not given)"
measure = "Potency"
result = "54.4 µM (active)"

[[record]]
compound = "O=c1ssc(Cl)c1Cl"
measure = "Potency"
result = "27.3 µM (active)"


For the next question, use this compound.
Please report the recorded Potency for `Cc1cc(C(F)(C(F)(F)F)C(F)(F)F)ccc1NC(=O)c1cccc(I)c1C(=O)NC(C)(C)CS(C)(=O)=O` .
21.8 µM (active)

* * *

- protocol details: qHTS assay to identify small molecule antagonists of the retinoid-related orphan receptor gamma (ROR-gamma) signaling pathway - cell viability counter screen (AID 1159520); note: nearly all actives have a fitted effect of over 50% in size
- test conditions: Tet-on RORgamma CHO cells viability, ATP luminescence, 16 h; series mostly up to 92.4 µM
Inconclusive results are not listed. Calls of active or inactive are those of the source. Calls follow the shape of the dose curve; as a rule, active = well fitted cell-killing curve with a large enough effect in the repeat runs; inconclusive = weak or mixed curves, or effect the other way; inactive = no such curve, though single readings can be large or run the other way.
Respond using exactly one of the listed classes: T (active), F (inactive)

// known answers, use as guide
[[record]]
compound = "C[C@]12CC[C@H](O)C[C@H]1CC[C@@H]1[C@@H]2C[C@@H](O)[C@]2(C)[C@@H](C3=CC(=O)OC3)CC[C@]12O"
class_label = "F"

[[record]]
compound = "O=[N+]([O-])c1c2ccccc2cc2ccccc12"
class_label = "F"

[[record]]
compound = "C[C@@H]1O[C@@H](O[C@@H]2C=C3CC[C@@H]4[C@H](CC[C@]5(C)[C@@H](c6ccc(=O)oc6)CC[C@]45O)[C@@]3(C)CC2)[C@H](O)[C@H](O)[C@H]1O"
class_label = "T"

[[record]]
compound = "c1cc[c]([Sb]([c]2ccccc2)[c]2ccccc2)cc1"
class_label = "F"


Call for entry ClC1=C(Cl)C2(Cl)C3C(Cl)C=CC3C1(Cl)C2(Cl)Cl (stereo not given) :
T

Likewise for `O=C(O)COc1nc(Cl)c(Cl)cc1Cl` ?
F

Likewise for CC(Cc1ccc(C(C)(C)C)cc1)CN1C[C@@H](C)O[C@@H](C)C1 (stereo not given in full) ?
F

Likewise for `CCOC(=O)C1(c2ccccc2)CCN(CCC(C#N)(c2ccccc2)c2ccccc2)CC1` ?
F

Likewise for CC(C)(C)C(O)C(Oc1ccc(-c2ccccc2)cc1)n1cncn1 (stereo not given) ?
F

Likewise for `C=COCCCl` ?
F
